# inhibition at 0.041 µM per record follows
biological target: JAK2 (Homo sapiens (Human)); test: Z'-LYTE kinase inhibition assay, JAK2; assay type: biochemical; conditions: read-out: % inhibition JAK2; heading: % inhibition JAK2; compound at 0.041 μM
Sequence (O60674 whole entry): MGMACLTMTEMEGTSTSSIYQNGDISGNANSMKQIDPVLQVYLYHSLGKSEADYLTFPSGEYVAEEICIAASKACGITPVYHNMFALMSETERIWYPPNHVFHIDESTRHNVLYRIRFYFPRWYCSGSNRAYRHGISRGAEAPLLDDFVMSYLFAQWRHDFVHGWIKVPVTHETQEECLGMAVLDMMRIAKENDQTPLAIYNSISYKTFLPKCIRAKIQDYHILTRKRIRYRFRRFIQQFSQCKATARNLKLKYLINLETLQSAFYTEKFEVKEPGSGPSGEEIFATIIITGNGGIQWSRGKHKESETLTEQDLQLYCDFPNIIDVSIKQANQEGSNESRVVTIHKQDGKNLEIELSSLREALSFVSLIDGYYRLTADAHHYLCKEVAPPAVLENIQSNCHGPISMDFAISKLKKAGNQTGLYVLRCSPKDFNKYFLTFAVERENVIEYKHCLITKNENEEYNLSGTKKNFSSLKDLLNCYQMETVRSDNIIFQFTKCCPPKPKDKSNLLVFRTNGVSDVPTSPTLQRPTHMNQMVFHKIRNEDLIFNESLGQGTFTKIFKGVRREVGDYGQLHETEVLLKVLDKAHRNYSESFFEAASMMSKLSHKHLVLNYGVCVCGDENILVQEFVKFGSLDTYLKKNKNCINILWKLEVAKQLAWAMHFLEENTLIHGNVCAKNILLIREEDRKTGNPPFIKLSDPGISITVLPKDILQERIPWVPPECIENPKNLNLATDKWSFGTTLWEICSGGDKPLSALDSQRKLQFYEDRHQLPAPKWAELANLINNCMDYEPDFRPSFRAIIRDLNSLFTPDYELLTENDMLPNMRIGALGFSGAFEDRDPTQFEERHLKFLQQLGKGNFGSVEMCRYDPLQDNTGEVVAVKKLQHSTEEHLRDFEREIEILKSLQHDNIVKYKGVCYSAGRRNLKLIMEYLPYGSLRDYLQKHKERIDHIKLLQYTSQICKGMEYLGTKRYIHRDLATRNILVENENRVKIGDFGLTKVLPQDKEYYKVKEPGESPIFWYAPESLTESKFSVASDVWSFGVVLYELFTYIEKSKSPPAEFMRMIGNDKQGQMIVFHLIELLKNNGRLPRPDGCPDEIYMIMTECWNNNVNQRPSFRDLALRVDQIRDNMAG
ASSAY READOUT: inhibition at 0.041 µM

- CC(=O)Nc1cccc(-c2cccc3cnc(Nc4ccc(N5CCN(C)CC5)cc4)nc23)c1: > 50%
- C=CC(=O)Nc1cccc(-c2cccc3cnc(Nc4ccc(N5CCN(CCF)CC5)cc4)nc23)c1: > 50%
- C=CC(=O)Nc1cccc(-c2nccc3cnc(Nc4ccc(N5CCOCC5)cc4)nc23)c1: < 50%
- C=CC(=O)Nc1cccc(-c2cccc3cnc(Nc4ccc(N5CCN(C(C)=O)CC5)cc4)nc23)c1: > 50%
- Fc1ccc(OCCN2CCOCC2)cc1-c1cccc2cnc(Nc3ccc(N4CCOCC4)cc3)nc12: < 50%

----------
# inhibition at 0.041 µM per record follows
Target: BTK (Homo sapiens (Human))
Sequence (Q06187 whole entry): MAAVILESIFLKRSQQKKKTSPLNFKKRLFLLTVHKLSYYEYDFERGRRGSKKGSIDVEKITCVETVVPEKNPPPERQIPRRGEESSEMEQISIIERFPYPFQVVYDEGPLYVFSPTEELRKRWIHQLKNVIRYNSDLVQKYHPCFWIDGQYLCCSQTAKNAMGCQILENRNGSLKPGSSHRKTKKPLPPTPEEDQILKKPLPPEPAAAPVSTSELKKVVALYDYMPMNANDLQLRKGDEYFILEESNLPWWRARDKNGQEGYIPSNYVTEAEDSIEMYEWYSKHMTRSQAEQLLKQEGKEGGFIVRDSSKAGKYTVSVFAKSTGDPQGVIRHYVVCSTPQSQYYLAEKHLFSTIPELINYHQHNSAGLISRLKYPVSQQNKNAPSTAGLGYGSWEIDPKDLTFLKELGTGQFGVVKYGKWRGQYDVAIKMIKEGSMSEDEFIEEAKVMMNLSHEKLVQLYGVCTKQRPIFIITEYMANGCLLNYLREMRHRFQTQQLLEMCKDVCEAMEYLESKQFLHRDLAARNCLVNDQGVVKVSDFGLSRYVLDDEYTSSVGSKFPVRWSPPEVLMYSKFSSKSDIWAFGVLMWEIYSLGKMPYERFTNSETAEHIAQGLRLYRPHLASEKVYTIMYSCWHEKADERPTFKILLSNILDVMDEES
Assay: Z'-LYTE kinase inhibition assay, BTK
Type: biochemical
Details: read-out: % inhibition BTK; heading: % inhibition BTK; compound at 0.041 μM
Procedure: Inhibitory activities of compounds against BTK, EGFR and EGFR mutants (EGFR L858R, EGFR T790M, EGFR L858R/T790M), FGFR1, FGFR2, JAK2, JAK3 and KDR were measured by Invitrogen using Z′-LYTE® Method as briefly described in the following. Test Compounds are screened in 1% DMSO (final) in the well. […] The mixture is then incubated for another 60-minute at room temperature for development reaction. Finally fluorescence is read by plate reader. […]
ASSAY READOUT: inhibition at 0.041 µM

• C=CC(=O)Nc1cccc(-c2cccc3cnc(Nc4ccc(OC5CN(C(C)=O)C5)cc4)nc23)c1 = > 50%
• C=CC(=O)Nc1cccc(-c2cccc3cnc(Nc4ccc(OCCN(C)C)cc4)nc23)c1 = > 50%
• Fc1cccc(-c2cccc3cnc(Nc4ccc(N5CCOCC5)cc4)nc23)c1 = < 50%
• C=CC(=O)Nc1cccc(-c2cccc3cnc(Nc4ccc(N[C@@H]5CCOC5)cc4)nc23)c1 = > 50%
• C=CC(=O)Nc1cccc(-c2cccc3cnc(Nc4ccc(NC5CCN(C(C)=O)CC5)cc4)nc23)c1 = > 50%
• C=CC(=O)Nc1cccc(-c2nccc3c(N)nc(Nc4ccc(N5CCOCC5)cc4)nc23)c1 = > 50%
• C=CC(=O)Nc1cccc(-c2cccc3cnc(Nc4ccc(N5CCNC(=O)C5)cc4)nc23)c1 = > 50%
• Clc1ccccc1-c1cccc2cnc(Nc3ccc(N4CCNCC4)cc3)nc12 = < 50%
